Data origin, for the record: patent US20240270846A1

biological target: T1, human CD3ed (human, UniProt P07766 23-126; P04234 22-105, limits assumed); experiment: SPR Biacore T200, IgG captured on protein A, antigen as analyte, 25 C;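 also: antigens flowed over a CM3 chip for 120 s association, KD derived from ka and kd, running buffer (ACES, NaCl, Tween20, pH 7.4) served as blank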
T1 construct: The construct injected as 'human CD3ed' in the Biacore assay is not defined; also called human CD3 epsilon/delta heterodimer
T1 sequence (P07766 23-126 limits assumed, chain 1 of 2): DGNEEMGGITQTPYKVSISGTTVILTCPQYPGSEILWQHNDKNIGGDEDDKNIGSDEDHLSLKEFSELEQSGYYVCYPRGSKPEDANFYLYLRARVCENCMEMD
T1 sequence (P04234 22-105 limits assumed, chain 2 of 2): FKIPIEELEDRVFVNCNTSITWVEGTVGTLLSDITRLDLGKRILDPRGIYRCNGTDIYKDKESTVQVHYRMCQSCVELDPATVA
This section presents binders with their documented koff values.
Expressed in s⁻¹, but write only the number.

# annotated cases, reported koff shown
- dBBDu_193 / dBBDu.L132 (antibody, human IgG1, V domains shown, Tested as IgG (human IgG1 constant region, kappa light chain); also called dBBDu193/L132; dBBDu_193/L132) VH: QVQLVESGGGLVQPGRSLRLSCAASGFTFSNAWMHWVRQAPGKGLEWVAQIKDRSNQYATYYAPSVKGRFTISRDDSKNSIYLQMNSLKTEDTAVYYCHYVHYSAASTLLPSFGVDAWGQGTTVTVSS VL: DIVMTQSPLSLPVTPGEPASISCQTSEELVHINRFIFLHWYQQKPGQAPRLLIYKVSNRFSGVPDRFSGSGSGTDFTLKISRVEAEDVGVYYCAQGTSVPFTFGQGTKLEIK: 0.0201
- dBBDu_167 / dBBDu.L094 (antibody, human IgG1, V domains shown, Tested as IgG (human IgG1 constant region, kappa light chain); also called dBBDu167/L094; dBBDu_167/L094) VH: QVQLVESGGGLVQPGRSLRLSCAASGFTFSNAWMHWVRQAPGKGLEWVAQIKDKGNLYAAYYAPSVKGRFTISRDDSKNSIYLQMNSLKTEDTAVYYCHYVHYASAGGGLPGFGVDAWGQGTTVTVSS VL: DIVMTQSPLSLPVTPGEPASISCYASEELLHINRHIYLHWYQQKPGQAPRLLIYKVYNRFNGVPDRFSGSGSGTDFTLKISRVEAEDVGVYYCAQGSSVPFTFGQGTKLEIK: 0.021

Identify measured koff associated with dBBDu_189 / dBBDu_L116 (antibody, human IgG1, V domains shown, Tested as IgG (human IgG1 constant region, kappa light chain); also called dBBDu189/L116) VH: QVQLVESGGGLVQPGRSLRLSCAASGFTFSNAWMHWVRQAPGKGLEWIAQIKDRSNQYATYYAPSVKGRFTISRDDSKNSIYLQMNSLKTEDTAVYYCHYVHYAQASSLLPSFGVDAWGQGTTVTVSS VL: DIVMTQSPLSLPVTPGEPASISCSSSQELVHANRQIYLHWYQQKPGQAPRLLIYKVANRFPGVPDRFSGSGSGTDFTLKISRVEAEDVGVYYCAQGTQVPFTFGQGTKLEIK 0.00434

Identify measured koff associated with dBBDu_189 / dBBDu_L119 (antibody, human IgG1, V domains shown, Tested as IgG (human IgG1 constant region, kappa light chain); also called dBBDu189/L119) VH: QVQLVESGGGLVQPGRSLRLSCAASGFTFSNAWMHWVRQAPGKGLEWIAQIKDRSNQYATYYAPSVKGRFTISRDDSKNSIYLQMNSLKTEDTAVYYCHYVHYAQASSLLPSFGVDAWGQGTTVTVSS VL: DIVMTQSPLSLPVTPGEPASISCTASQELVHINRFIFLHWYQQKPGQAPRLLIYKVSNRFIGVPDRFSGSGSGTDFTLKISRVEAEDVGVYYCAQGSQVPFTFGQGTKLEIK 0.0258

Identify measured koff associated with dBBDu_167 / dBBDu_L091 (antibody, human IgG1, V domains shown, Tested as IgG (human IgG1 constant region, kappa light chain); also called dBBDu167/L091) VH: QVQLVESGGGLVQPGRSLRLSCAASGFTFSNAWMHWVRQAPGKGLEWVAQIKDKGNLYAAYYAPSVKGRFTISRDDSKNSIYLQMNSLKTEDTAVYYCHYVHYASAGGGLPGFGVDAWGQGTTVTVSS VL: DIVMTQSPLSLPVTPGEPASISCSASESLLHNNRHTYLHWYQQKPGQAPRLLIYRVSNRFNGVPDRFSGSGSGTDFTLKISRVEAEDVGVYYCGQGTQVPFTFGQGTKLEIK 0.0216
